The measurements presented in this section are drawn from patent US9127301B2.

Molecular target: NDO/NahB/NahC (Pseudomonas putida)
Construct: made in house; host or cells: E. coli JM109 (DE3) (pDTG141) for NDO; E. coli BL21 Star (DE3) for NahB and NahC
Sequence (P0A110 whole entry): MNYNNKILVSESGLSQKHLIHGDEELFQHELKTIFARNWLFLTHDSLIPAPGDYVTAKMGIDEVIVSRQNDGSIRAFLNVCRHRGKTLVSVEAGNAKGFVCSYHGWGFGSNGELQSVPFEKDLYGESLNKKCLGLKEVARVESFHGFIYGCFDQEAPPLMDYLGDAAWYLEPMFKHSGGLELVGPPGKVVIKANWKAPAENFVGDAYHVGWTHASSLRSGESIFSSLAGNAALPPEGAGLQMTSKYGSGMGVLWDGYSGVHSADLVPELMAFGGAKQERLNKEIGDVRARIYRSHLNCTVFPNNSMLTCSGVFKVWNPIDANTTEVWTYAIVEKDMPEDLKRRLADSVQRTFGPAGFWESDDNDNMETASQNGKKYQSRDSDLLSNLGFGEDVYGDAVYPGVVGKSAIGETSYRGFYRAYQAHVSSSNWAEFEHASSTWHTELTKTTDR
Sequence (P0A112 whole entry, further chain): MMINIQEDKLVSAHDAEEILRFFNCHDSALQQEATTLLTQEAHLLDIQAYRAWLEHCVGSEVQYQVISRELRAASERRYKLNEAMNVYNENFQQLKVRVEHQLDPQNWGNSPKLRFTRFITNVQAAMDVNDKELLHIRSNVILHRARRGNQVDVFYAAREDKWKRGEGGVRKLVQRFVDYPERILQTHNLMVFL
Experiment: Coupled naphthalene dioxygenase/NahB/NahC colorimetric assay
Assay type: biochemical
attribute-measured: detection of PAH compound by the colorimetric assay

{"columns": ["compound", "recorded-result"],
 "data": [
  ["c1ccc2c(c1)cc1ccc3cccc4ccc2c1c34", "detect"],
  ["c1ccc2c(c1)ccc1ccccc12", "detect"],
  ["c1ccc2cc3ccccc3cc2c1", "detect"],
  ["c1ccc(-c2ccccc2)cc1", "detect"],
  ["c1ccc2ccccc2c1", "detect"],
  ["c1ccc2c(c1)[nH]c1ccccc12", "detect"],
  ["c1ccc2c(c1)Cc1ccccc1-2", "detect"]
]}
